Values compiled from ChEMBL document CHEMBL4513216.

PROCEDURE_DETAILS: Toxicity liver stage against HepG2, at 10uM
Format: cell-based
Parameters: test concentration 10 uM, cell line HepG2-A16-CD81EGFP
PARTICULARS: human, HepG2-A16-CD81EGFP cells; read-out: INHIBITION
ENDPOINT: cytotoxicity at 10 µM (%)

1. Cc1csc2c(N3CCC(NCCCC4CCOC4)CC3)ncnc12 (stereo unspecified) | 3.3
2. Cc1cc(NC2CCc3ncnn3C2)n2ncnc2n1 (stereo unspecified) | -18.4
3. COc1cccc([C@@H]2CCN(Cc3[nH]nc(C)c3Cl)C[C@H]2O)c1 | -3.26
4. CC(=O)Nc1ncc(S(=O)(=O)Nc2cccc(C)c2)s1 | 7.63
5. CC(C(=O)NCc1cn2cc(Br)ccc2n1)S(C)(=O)=O (stereo unspecified) | -16.4
6. OCCN(Cc1ccncc1)CC1(c2ccc(Cl)cc2)CC1 | 9.39
7. CCN1CCCN(c2ccc(-n3ccc(C)n3)nn2)CC1 | -0.553
8. CC(NCCNS(=O)(=O)c1cccc(Cl)c1)C1CCOCC1 (stereo unspecified) | -1.6
9. O=c1[nH]nc(CNCc2ccc(OC34CCCN(CC3)C4)cc2)[nH]1 (stereo unspecified) | -2.83
10. CN(C)[C@@H]1CCN(c2ncc(F)cn2)[C@H]1Cc1ccccc1 | -1.65
11. Cc1csc(CN2CC[C@@](O)(C3CCOCC3)[C@H](C)C2)n1 | 4.48

* * *

Recorded cytotoxicity at 10 µM by entry
PROCEDURE_DETAILS: Toxicity liver stage against HepG2, at 10uM
Assay type: cell-based
Parameters: test concentration 10 uM, cell line HepG2-A16-CD81EGFP
PARTICULARS: human, HepG2-A16-CD81EGFP cells; read-out: INHIBITION
ENDPOINT: cytotoxicity at 10 µM (%)

1) c1nc(CN2CCC3(CC2)COCCN3CC2CC2)c[nH]1 | -1.26
2) O=c1cc(Cn2ccnc2)nc2n1CCCN(Cc1cccs1)C2 | 0.312
3) N#Cc1ccc(OCCn2cccn2)cc1 | 11.2
4) Cc1cc(CN(C)C(=O)c2ccc(OCC(F)(F)F)nc2)no1 | -6.19
5) O=C(Cc1ccn[nH]1)Nc1cncc(Br)c1O | -3.93
6) CN(C[C@@H]1CCC[C@@H]2CN(Cc3cccnc3)C[C@@H]21)C1CC1 | 8.01
7) CCC(C)c1ccc(NC(=O)C2CCN(C(=O)N(C)C)CC2)cc1 (stereo unspecified) | -7.29
8) CC(C)Nc1nc2c(s1)C(=O)CN(C(=O)NCCc1ccccc1)C2 | -5.55
9) O=C(Cn1cnnn1)NC(c1ccccc1)c1ccc2c(c1)CCCO2 (stereo unspecified) | -1.47
10) O[C@@H]1CN(CC2=Cc3cc(Cl)ccc3OC2)CC[C@H]1N1CCCCCC1 | 1.9
11) CCN(CC)[C@H]1COC[C@@H]2CN(Cc3cnn(C)c3)C[C@@H]21 | 11.5

* * *

PROCEDURE_DETAILS: Toxicity liver stage against HepG2, at 10uM
Assay type: cell-based
Parameters: test concentration 10 uM, cell line HepG2-A16-CD81EGFP
PARTICULARS: human, HepG2-A16-CD81EGFP cells; read-out: INHIBITION
Recorded cytotoxicity at 10 µM by entry
ENDPOINT: cytotoxicity at 10 µM (%)

1. Cc1ccc(-c2nnc(CN3CCCCC3Cn3cncn3)o2)cc1 (configuration not stated) | 3.84
2. O=C(O)c1nnn(Cc2ccc(F)cc2)c1-c1cccnc1 | -6.21
3. Cc1cnc(CN(C)C2CCN(Cc3nccn3C)C2)o1 (configuration not stated) | -7.03
4. CCn1ncc2c1C(COCC1CC1)N(Cc1c(C)noc1C)CC2 (configuration not stated) | 12.3
5. CCc1noc(CC)c1CC(=O)N1CCN(C(=O)C2CCCC2)CC1 | -4.78
6. COCCCC1CCCN(C(=O)CCc2cc(O)no2)C1 (configuration not stated) | 8.41
7. C[C@H]1CN(c2ccccn2)C[C@@]12CCN(Cc1cccnc1)C2=O | -1.16
8. CCc1nc(C(=O)N2CCN(C)c3ccccc32)c[nH]1 | 1.16
9. Clc1cnc(NCc2ccccc2N2CCOCC2)nc1 | -0.234
10. Cc1c(C(C)NC(=O)C2CCCCC2)cnn1C (configuration not stated) | -4.79
11. COc1ccc(N2CCCN(CC(=O)N3CCNC(=O)C3)CC2)cc1 | 6.06
12. O=C(CN1CCCC(Cn2cncn2)C1)NCc1ccccc1F (configuration not stated) | -4.65

* * *

PROCEDURE_DETAILS: Toxicity liver stage against HepG2, at 10uM
Type: cell-based
Parameters: test concentration 10 uM, cell line HepG2-A16-CD81EGFP
PARTICULARS: human, HepG2-A16-CD81EGFP cells; read-out: INHIBITION
ENDPOINT: cytotoxicity at 10 µM (%)

1. CNc1cccc(C2CCCN(C(C)=O)C2)n1 (stereo unspecified) | -0.962
2. CCCn1cc(-c2cc(-c3cnc(OC)nc3)c(C#N)c(N)n2)c(C)n1 | 2.89
3. CCN1CCc2[nH]cnc2C12CCN(c1ccc(Cl)cn1)CC2 | 6
4. FC(F)c1nnc2ccc(N3CCC4(CCCCC4)C3)nn12 | 1.47
5. Cc1cc(=O)[nH]c(=O)n1COCCOCc1ccccc1 | 3.36
6. COCCOc1ccccc1CNCc1c(C)nn(C)c1N(C)C | -5.65

* * *

PROCEDURE_DETAILS: Toxicity liver stage against HepG2, at 10uM
Type: cell-based
Design: test concentration 10 uM, cell line HepG2-A16-CD81EGFP
PARTICULARS: human, HepG2-A16-CD81EGFP cells; read-out: INHIBITION
ENDPOINT: cytotoxicity at 10 µM (%)

1. CC(C)N1CCC2(CC1)CC(CC(N)=O)c1ccc(F)cc12 (stereo not drawn) | 12.8
2. COc1ccc(COCC(O)CNC(=O)c2cccnc2)cc1 (stereo not drawn) | 7.94
3. O=C(c1cncc(N2CCC3(CCCNC3)C2)n1)N1CCCC1 (stereo not drawn) | -4.15
4. Cc1ccccc1OCCCC(=O)N1CCCC(n2cncn2)C1 (stereo not drawn) | -4.36
5. CCC(CO)N(Cc1ccco1)C(=O)c1cccnc1NC (stereo not drawn) | 1.64
6. O=C(CCc1ccsc1)NC1CCN(c2cccc(F)c2)CC1 | -3.89
7. CCCc1nnc(N2CCCC(c3nnc(Cn4ccnc4)n3C)C2)s1 (stereo not drawn) | -0.391
8. Cc1ncc(CN2CCC(n3cc(-c4ccc(F)cc4)nn3)CC2)cn1 | 5.48
9. Fc1ccc(CN2CCO[C@H]3[C@H](OCc4ccncc4)CC[C@@H]32)cc1 | -26.7
10. CCN(Cc1noc(CC(C)C)n1)Cc1ccccc1C(=O)O | -51.6
11. Cc1cc(CN(C)C2CCCN(Cc3noc(C4CC4)n3)C2)no1 (stereo not drawn) | -10.8
12. COc1ccc(CCNC(=O)C2CCOC2)c(Cl)c1 (stereo not drawn) | -2.27
13. COc1cccc([C@@H]2CCN(Cc3c[nH]c(C)n3)C[C@H]2O)c1 | -2.89
14. CN(C)c1ncccc1CNC(=O)N1CCCC1CN1CCCCC1 (stereo not drawn) | -0.986
15. CCc1ccc(CCNc2ncnc3c2CCN(C(=O)C2CC2)C3)cc1 | 36.9
16. CN1C[C@@H](C(=O)N2CCOCC2)[C@@]2(CCc3ccccc3C(=O)N2)C1 | 9.87
17. Cn1c(C2CCCCN2C(=O)CN2CCCC2=O)nc2ccccc21 (stereo not drawn) | -0.62
18. Cc1ccc(S(=O)(=O)NC2CCC(=O)NC2)cc1Br (stereo not drawn) | -2.38
19. CC(C)OCCN1CCN(C(=O)c2cc(-n3cccn3)ccn2)CC1 | -0.158
20. CC(C(=O)N1CCCN(Cc2ccc(C#N)cc2)CC1)n1cncn1 (stereo not drawn) | 2.6
21. CCc1cnc(CN(C(C)=O)C2CCN(Cc3nccn3C)C2)o1 (stereo not drawn) | -8.13
22. CS(=O)(=O)NC1CCN(C(=O)c2ccc(Br)o2)C1 (stereo not drawn) | -7.03
23. Cc1noc(C)c1CN1CCO[C@H]2CN(C3CCOCC3)C[C@H]21 | -1.41
24. O=C(CN1CC(c2nc(C3CC3)no2)C1)N1CCOCC1 | -9.76
25. CC(O)CN1CCC(CNCc2ccccc2C(F)(F)F)CC1 (stereo not drawn) | -9.27
26. CC(C)c1ncc(Cl)c(C(=O)N2CCN(C3CC3)CC2)n1 | 3.78
27. O=c1c2c[nH]c(N3CCOCC3)nc-2cn1-c1ccc2c(c1)OCO2 | -13.1
28. CC(C)C(O)CCNC(=O)Nc1cc(F)ccc1-n1cccn1 (stereo not drawn) | -3.86
29. CN(C)c1ccc(-c2nnc([C@H]3CCN(C4CCCCC4)C3)o2)cc1 | 0.174
30. CCc1nnc(C(C)N2CCc3cncnc3C2)o1 (stereo not drawn) | 7.49
31. Cn1nc(C(=O)N2CCOCC2)cc1C(=O)Nc1cc(Cl)cc(Cl)c1 | 27.9
32. CCc1ccc2nc(C)cc(C(=O)NC3CCCCNC3=O)c2c1 (stereo not drawn) | -8.48
33. CC(=O)NCC1CCCN(Cc2nc(Cc3ccccc3F)no2)C1 (stereo not drawn) | -11.1
34. COc1cccc(OCC2CCCN(C(=O)CCCn3cccn3)C2)c1 (stereo not drawn) | 8.12
35. CCn1cc(CN2C[C@@H]3CC[C@H]2CN(C(=O)C2CCC2)C3)cn1 | 3.5
36. CC(C)=CCN1CCN(C(C)c2cccnc2)CC1 (stereo not drawn) | -2.65
37. Cc1nn(C)c(Cl)c1C1CCCN1c1ncnc2c1CCC2 (stereo not drawn) | 19.1
38. CCS(=O)(=O)N1CCCC(c2nccn2Cc2cccnc2)C1 (stereo not drawn) | -2.78
39. O=C(c1ccccc1)N(CC1CC1)c1cccnc1 | 7.27
40. Cc1cc(C(=O)NC2CC(=O)N(C(C)C)C2=O)c(C)n1C(C)C (stereo not drawn) | -9.13
41. Cc1cc2cccc(C(=O)N3CC[C@](C)(O)[C@H](C)C3)c2o1 | 4
42. CN1Cc2ccccc2CC2(CCN(c3ncc(F)cn3)CC2)C1=O | 6.59
43. CC(C)C(=O)NC1CCN(Cc2cccc3c2OCCO3)CC1 | -0.818
44. CC(C)CC(CCO)CNC(=O)N1CCCC1(C)C (stereo not drawn) | -12.7
45. CN(C)C(=O)COC1COC2(CCN(CC3CCOCC3)CC2)C1 (stereo not drawn) | -113
46. CC1CN(C(=O)NCCn2ccnc2)CCO1 (stereo not drawn) | -49.5
47. COCC1c2c(cnn2C)CCN1Cc1ccc(C)o1 (stereo not drawn) | -5.73
48. O=C(NCc1cc[nH]n1)NCC(c1ccc(F)cc1)N1CCOCC1 (stereo not drawn) | -7.77
